- Protocol text: Pharmacokinetic study of 153 (and metabolite endothal) in SD rats, iv and po; plasma, liver, brain
- Assay type: in vivo
- Measurement parameters: female, SD, rat, in vivo, po, 1.25 mg/kg, 153 in plasma, PO 1.25 mg/kg, rat 1; read-out: AUC
Property name: AUC (ng·h/mL)
Expressed in ng·h/mL, but write only the number.

Enquiry: Can you look up the measured AUC of CCCOC(=O)C1C2CCC(O2)C1C(=O)N1CCN(C)CC1 (stereo not shown) for me?
Return: 163

---

- Protocol text: Pharmacokinetic study of 153 (and metabolite endothal) in SD rats, iv and po; plasma, liver, brain
- Assay type: in vivo
- Measurement parameters: female, SD, rat, in vivo, iv, 1.25 mg/kg, 153 iv 1.25 mg/kg; read-out: T1/2 of 153 in plasma (converted)
Property name: half-life (min)
Expressed in min, but write only the number.

Enquiry: Can you look up the measured half-life of CCCOC(=O)C1C2CCC(O2)C1C(=O)N1CCN(C)CC1 (stereo not shown) for me?
Return: 55.3

---

- Protocol text: in vivo
- Measurement parameters: male, Sprague-Dawley (SD), rat, in vivo, iv, 1 mg/kg, Plasma Concentration of 100
- Procedure: A pharmacokinetic study of 151 was conducted in SD rats. The study consisted of two dose levels at 1.0 (iv) and 10 (oral) mg/kg. The blood samples were collected at predetermined times from rats and centrifuged to separate plasma. […] The pharmacokinetic parameters of 151 following iv and oral administration to SD rats were calculated. The absolute bioavailability was evaluated. […] Quantification was achieved by the external standard method. […]
Property name: concentration at 0.25 h (ng/mL)
Expressed in ng/mL, but write only the number.

Enquiry: Can you look up the measured concentration at 0.25 h of CN1CCN(C(=O)C2C3CCC(O3)C2C(=O)O)CC1 (stereo not shown) for me?
Return: 345

---

- Protocol text: in vivo
- Measurement parameters: male, Sprague-Dawley (SD), rat, in vivo, po, 10 mg/kg, Plasma Concentration of 100
Property name: concentration at 0.5 h (ng/mL)
Expressed in ng/mL, but write only the number.

Enquiry: Can you look up the measured concentration at 0.5 h of CN1CCN(C(=O)C2C3CCC(O3)C2C(=O)O)CC1 (stereo not shown) for me?
Return: 1450

---

- Protocol text: Pharmacokinetic study of 157 (and metabolite endothal) in SD rats, iv and po; plasma, liver, brain
- Format: in vivo
- Measurement parameters: female, Sprague-Dawley (SD), rat, in vivo, iv, 1.5 mg/kg, iv 1.5 mg/kg, 0.25 hr, Mean; read-out: 157 plasma concentration
Property name: concentration at 0.25 h (ng/mL)
Expressed in ng/mL, but write only the number.

Enquiry: Can you look up the measured concentration at 0.25 h of CCCCCCCOC(=O)C1C2CCC(O2)C1C(=O)N1CCN(C)CC1 (stereo not shown) for me?
Return: 115

---

- Protocol text: in vivo
- Measurement parameters: male, Sprague-Dawley (SD), rat, in vivo, iv, 1 mg/kg, Plasma Concentration of 100
Property name: concentration at 3 h (ng/mL)
Expressed in ng/mL, but write only the number.

Enquiry: Can you look up the measured concentration at 3 h of CN1CCN(C(=O)C2C3CCC(O3)C2C(=O)O)CC1 (stereo not shown) for me?
Return: 32.2

---

- Protocol text: Pharmacokinetic study of 153 (and metabolite endothal) in SD rats, iv and po; plasma, liver, brain
- Type: in vivo
- Measurement parameters: female, SD, rat, in vivo, iv, 1.25 mg/kg, iv 1.25 mg/kg, 0.25 hr, Rat 2; read-out: 153 liver concentration
Property name: concentration at 0.25 h (ng/g)
Expressed in ng/g, but write only the number.

Enquiry: Can you look up the measured concentration at 0.25 h of CCCOC(=O)C1C2CCC(O2)C1C(=O)N1CCN(C)CC1 (stereo not shown) for me?
Return: 652

---

- Protocol text: in vivo
- Measurement parameters: female, Sprague-Dawley, rat, in vivo, iv, 1.5 mg/kg, mean Cmax of 100 in brain
Property name: Cmax

Enquiry: Can you look up the measured Cmax of CN1CCN(C(=O)C2C3CCC(O3)C2C(=O)O)CC1 (stereo not shown) for me?
Return: 17.4 to 43.5 ng/g

---

- Protocol text: Pharmacokinetic study of 153 (and metabolite endothal) in SD rats, iv and po; plasma, liver, brain
- Assay type: in vivo
- Measurement parameters: female, SD, rat, in vivo, iv, 1.25 mg/kg, iv 1.25 mg/kg, 1 hr, Mean; read-out: 153 plasma concentration
Property name: concentration at 1 h (ng/mL)
Expressed in ng/mL, but write only the number.

Enquiry: Can you look up the measured concentration at 1 h of CCCOC(=O)C1C2CCC(O2)C1C(=O)N1CCN(C)CC1 (stereo not shown) for me?
Return: 54.7

---

- Protocol text: in vivo
- Measurement parameters: female, Sprague-Dawley, rat, in vivo, iv, 0.5 mg/kg, 100 plasma concentration
Property name: concentration at 1 h

Enquiry: Can you look up the measured concentration at 1 h of CN1CCN(C(=O)C2C3CCC(O3)C2C(=O)O)CC1 (stereo not shown) for me?
Return: 192 ng/mL

---

- Protocol text: Pharmacokinetic study of 157 (and metabolite endothal) in SD rats, iv and po; plasma, liver, brain
- Type: in vivo
- Measurement parameters: female, SD, rat, in vivo; 157 iv 1.5 mg/kg; read-out: AUClast of 157 in plasma
Property name: AUC(0-t) (ng·h/mL)
Expressed in ng·h/mL, but write only the number.

Enquiry: Can you look up the measured AUC(0-t) of CCCCCCCOC(=O)C1C2CCC(O2)C1C(=O)N1CCN(C)CC1 (stereo not shown) for me?
Return: 47.2

---

- Protocol text: in vivo
- Measurement parameters: male, Sprague-Dawley, rat, in vivo, iv, 1 mg/kg, Tmax of 100
Property name: Tmax (min)
Expressed in min, but write only the number.

Enquiry: Can you look up the measured Tmax of CN1CCN(C(=O)C2C3CCC(O3)C2C(=O)O)CC1 (stereo not shown) [Compound 100] for me?
Return: 4.98

---

- Protocol text: in vivo
- Measurement parameters: female, Sprague-Dawley (SD), rat, in vivo, iv, 1 mg/kg, 100 liver concentration
Property name: concentration at 0.25 h (ng/g)
Expressed in ng/g, but write only the number.

Enquiry: Can you look up the measured concentration at 0.25 h of CN1CCN(C(=O)C2C3CCC(O3)C2C(=O)O)CC1 (stereo not shown) for me?
Return: 1300

---

- Protocol text: Pharmacokinetic study of 153 (and metabolite endothal) in SD rats, iv and po; plasma, liver, brain
- Format: in vivo
- Measurement parameters: female, Sprague-Dawley, rat, in vivo, po, 1.25 mg/kg, PO per title, 1.25 mg/kg, 2 hr, Rat 1; read-out: 153 liver concentration
Property name: concentration at 2 h (ng/g)
Expressed in ng/g, but write only the number.

Enquiry: Can you look up the measured concentration at 2 h of CCCOC(=O)C1C2CCC(O2)C1C(=O)N1CCN(C)CC1 (stereo not shown) for me?
Return: 42

---

- Protocol text: in vivo
- Design: species or system SD rats
- Measurement parameters: male, Sprague-Dawley, rat, iv, 1.4 mg/kg, Cmax of 113 in brain
Property name: Cmax (ng/g)
Expressed in ng/g, but write only the number.

Enquiry: Can you look up the measured Cmax of CN1CCN(C(=O)C2C(C(=O)OCC(Cl)(Cl)Cl)[C@H]3CC[C@@H]2O3)CC1 (stereo partly shown) for me?
Return: 90.4

---

- Protocol text: Pharmacokinetic study of 153 (and metabolite endothal) in SD rats, iv and po; plasma, liver, brain
- Assay type: in vivo
- Measurement parameters: female, SD, rat, in vivo, iv, 1.25 mg/kg, 153 in plasma, IV 1.25 mg/kg, rat 2; read-out: MRT (0-t)
- Procedure: The blood, liver and brain tissue samples were collected at predetermined times from rats. […] Compound were diluted shortly before use in 4% sodium bicarbonate for sterile injection (this is the standard pediatric solution of NaHCO3 with a pH of about 8.5). Compound 153 was freshly prepared by diluting the drugs shortly before use in 4% sodium bicarbonate for sterile injection (this is the standard pediatric solution of NaHCO3 with a pH of about 8.5). […]
Property name: MRT last (min)
Expressed in min, but write only the number.

Enquiry: Can you look up the measured MRT last of CCCOC(=O)C1C2CCC(O2)C1C(=O)N1CCN(C)CC1 (stereo not shown) for me?
Return: 38.8

---

- Protocol text: Pharmacokinetic study of 157 (and metabolite endothal) in SD rats, iv and po; plasma, liver, brain
- Format: in vivo
- Measurement parameters: female, SD (Sprague-Dawley), rat, in vivo, iv, 1.5 mg/kg, 157 in plasma, IV 1.5 mg/kg, Mean; read-out: Cmax
Property name: Cmax (ng/mL)
Expressed in ng/mL, but write only the number.

Enquiry: Can you look up the measured Cmax of CCCCCCCOC(=O)C1C2CCC(O2)C1C(=O)N1CCN(C)CC1 (stereo not shown) for me?
Return: 115

// provenance: patent US20160264593A1
